All figures here come from patent US20090137572A1.

# EXPERIMENTAL SYSTEM: protein kinases (panel of Table 4) (Homo sapiens, UniProt P24941)
# Construct: other: kinase CDK2A; ATP 100 μM; other: kinase CDK2E
# PROTOCOL NOTES: Kinase selectivity profile, kinase inhibition IC50 (Table 4), ATP 100 μM
# Format: biochemical
# APPLIED CONDITIONS: kinase CDK2A, read-out: Kinase inhibition IC50, CDK2A
# Method: For the assays shown in Table 3, the kinases were assayed at the following ATP concentrations: SAPK4, PKBΔph, GSK3b, SAPK3, CK2, MKK1, PIM2, IKKB, ERK8, and PRK2 at 5 μM; JNK, PRAK, ROCK-II, SAPK2b, CDK2, CHK1, MSK1, CSK, P70S6K, PKA, CK1, MAPKAP-K2, SGK, PKCa, PDK1, NEK 7, and MAPKAP-K3 at 20 μM; SAPK2a, LCK, AMPK, MAPK2, DYRK1a, MAPKAP-K1a, NEK-6, NEK2a, PBK, CAMK-1, SRPK-1, JNK3, MNK2, RSK2, MNK1, PKBB, and SmMLCK at 50 μM. For the assays in Table 4 the ATP concentration was 100 μM throughout.
pIC50: −log10 of the molar value.
PROPERTY MEASURED: pIC50

>>> df
                                   compound  measurement
0  CCNc1nc(C)c(-c2ccnc(Nc3ccc(N4CCNCC4)cc3)n2)s1 [Compound 59]         6.20

(a) CNc1nc(C)c(-c2ccnc(Nc3cccc(S(C)(=O)=O)c3)n2)s1 [Compound 27]
(b) COCCNS(=O)(=O)c1cccc(Nc2nccc(-c3sc(N)nc3C)n2)c1 [Compound 55]
Sort a and b by pIC50 descending and give the first. Pick one; state its label.
a
(a: 8.15, b: 5.68)

---

# EXPERIMENTAL SYSTEM: CDK2-cycline E (Homo sapiens, UniProt P24941)
# PROTOCOL NOTES: Kinase assay (radioactive phosphate incorporation), CDK2-cyclin E
# Type: biochemical
# APPLIED CONDITIONS: read-out: Kinase Inhibition pIC50 CDK2-cycline E (converted)
PROPERTY MEASURED: IC50 (nM)

Examples from the recorded data:
                              record_smiles  property_measured  measurement
0  Cc1nc(NCCc2ccccc2)sc1-c1ccnc(Nc2ccc(N3CCOCC3)cc2)n1               IC50         1000
1  Cc1nc(N)sc1-c1ccnc(Nc2ccc(N3CCSCC3)cc2)n1               IC50         1580
2  Cc1cc(Nc2nccc(-c3sc(CO)nc3C)n2)ccc1N1CCOCC1               IC50         1260

(I) Cc1nc(C)c(-c2ccnc(Nc3cccc(CN4CCOCC4)c3)n2)s1
(II) CCNc1nc(C)c(-c2ccnc(Nc3cccc(S(=O)(=O)NCC)c3)n2)s1
Could you point out whether the larger IC50 belongs to I or to II ? // caller expects the label of the chosen entry
I

---

# EXPERIMENTAL SYSTEM: CDK2-cycline E (Homo sapiens)
# PROTOCOL NOTES: Kinase assay (radioactive phosphate incorporation), CDK2-cyclin E
# Type: biochemical
# APPLIED CONDITIONS: read-out: Kinase Inhibition pIC50 CDK2-cycline E (converted)
PROPERTY MEASURED: IC50 (nM)

Here is how some molecules turned out for IC50.
In [3]: df
Out[3]:
                              record_smiles  property_measured  measurement
0  CCNc1nc(C)c(-c2ccnc(Nc3ccc(S(N)(=O)=O)cc3)n2)s1               IC50         3.98
1  CC(=O)N1CCN(c2ccc(Nc3nccc(-c4sc(N(C)Cc5ccccc5)nc4C)n3)cc2)CC1               IC50         2000
2  CNc1nc(C)c(-c2ccnc(Nc3ccc(C)c(Br)c3)n2)s1               IC50          316
3  CCNc1nc(C)c(-c2ccnc(Nc3ccc(S(=O)(=O)NCc4ccccc4)cc3)n2)s1               IC50          631
4  CCNc1nc(C)c(-c2ccnc(Nc3ccc(N4CCN(C)CC4)cc3)n2)s1               IC50          631

(1) CC(=O)NCc1cccc(Nc2nccc(-c3sc(-c4cccs4)nc3C)n2)c1
(2) CCNc1nc(C)c(-c2ccnc(Nc3cccc(CNS(C)(=O)=O)c3)n2)s1
Please compare: 1 and 2 . Report which one has the smaller IC50 value. Your answer should be the label attached to the chosen record.
2

(I) CCNc1nc(C)c(-c2ccnc(Nc3ccc(N4CCOCC4)c(C)c3)n2)s1
(II) COc1ccc(Nc2nccc(-c3sc(N)nc3C)n2)cc1C
(III) COc1ccc(Nc2nccc(-c3sc(C)nc3C)n2)cc1CN1CCOCC1
(IV) Cc1nc(CO)sc1-c1ccnc(Nc2ccc(N(C)C)cc2)n1
(V) Cc1nc(N)sc1-c1ccnc(Nc2cccc(CNS(=O)(=O)C(F)(F)F)c2)n1
Hey, can you sort those molecules up there by IC50, smallest first? # answer = labels listed in requested order
V, II, IV, I, III

(A) CCOC(=O)N1CCN(c2ccc(Nc3nccc(-c4sc(C)nc4C)n3)cc2)CC1
(B) Cc1nc(C)c(-c2ccnc(Nc3ccc(N4CCN(CC(=O)NC(C)C)CC4)cc3)n2)s1
(C) CCNc1nc(C)c(-c2ccnc(Nc3ccc(N4CCN(Cc5ccccc5)CC4)cc3)n2)s1
Rank by IC50 (largest to smallest). Order the labels as requested and list them.
A, B, C

---

# EXPERIMENTAL SYSTEM: CDK7/cyclin H (Homo sapiens)
# Sequence (P50613 whole entry): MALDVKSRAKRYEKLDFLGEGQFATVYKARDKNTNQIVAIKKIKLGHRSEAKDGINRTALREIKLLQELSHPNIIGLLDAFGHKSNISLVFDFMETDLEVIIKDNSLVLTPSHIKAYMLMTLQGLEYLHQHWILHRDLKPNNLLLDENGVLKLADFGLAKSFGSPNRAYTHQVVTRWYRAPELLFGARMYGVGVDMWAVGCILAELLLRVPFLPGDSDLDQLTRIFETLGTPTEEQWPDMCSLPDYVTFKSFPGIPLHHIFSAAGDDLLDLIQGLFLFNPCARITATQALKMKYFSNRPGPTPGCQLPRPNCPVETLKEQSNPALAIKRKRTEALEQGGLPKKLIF
# Sequence (P51946 whole entry partner): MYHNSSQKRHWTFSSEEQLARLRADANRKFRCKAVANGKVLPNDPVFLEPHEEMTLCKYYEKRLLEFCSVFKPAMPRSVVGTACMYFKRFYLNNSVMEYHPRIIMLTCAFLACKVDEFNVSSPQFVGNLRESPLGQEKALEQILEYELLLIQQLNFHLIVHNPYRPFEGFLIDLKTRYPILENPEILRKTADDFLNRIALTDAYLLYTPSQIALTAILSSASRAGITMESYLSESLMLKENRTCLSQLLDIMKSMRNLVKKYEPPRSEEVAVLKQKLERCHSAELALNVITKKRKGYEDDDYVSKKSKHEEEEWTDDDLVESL
# PROTOCOL NOTES: CDK 7 assay (CTD peptide substrate)
# Format: biochemical
# APPLIED CONDITIONS: read-out: Kinase Inhibition pIC50 CDK7-cyclin H (converted)
PROPERTY MEASURED: IC50 (nM)

In [3]: df
Out[3]:
                                   compound  measurement
0  COCCNS(=O)(=O)c1cccc(Nc2nccc(-c3sc(C)nc3C)n2)c1 [Compound 56]         5010
1  Cc1nc(C)c(-c2ccnc(Nc3cccc(CNS(=O)(=O)C(F)(F)F)c3)n2)s1 [Compound 11]          631
2  CCNc1nc(C)c(-c2ccnc(Nc3ccc(N4CCN(Cc5ccccc5)CC4)cc3)n2)s1 [Compound 60]          200
3  CNc1nc(C)c(-c2ccnc(Nc3ccc(S(C)(=O)=O)cc3)n2)s1 [Compound 20]         3980
4  CNc1nc(C)c(-c2ccnc(Nc3ccc(S(N)(=O)=O)cc3)n2)s1 [Compound 34]         1000

(P) Cc1nc(N)sc1-c1ccnc(Nc2ccc(S(=O)(=O)NCc3ccccc3)cc2)n1 [Compound 73]
(Q) CCNc1nc(C)c(-c2ccnc(Nc3ccc(S(=O)(=O)NCCOC)cc3)n2)s1 [Compound 39]
Could you tell me which of P and Q has the lower IC50 reading? Please indicate the selected item by its label.
Q

(P) Cc1nc(C)c(-c2ccnc(Nc3cccc(S(C)(=O)=O)c3)n2)s1 [Compound 4]
(Q) CCNc1nc(C)c(-c2ccnc(Nc3cccc(S(=O)(=O)NCCOC)c3)n2)s1 [Compound 53]
(R) CNc1nc(C)c(-c2ccnc(Nc3ccc(S(=O)(=O)NCCO)cc3)n2)s1 [Compound 67]
(S) CC(=O)N1CCN(c2ccc(Nc3nccc(-c4sc(-c5cccs5)nc4C)n3)cc2)CC1 [Compound 131]
Put the entries in order of IC50, starting with the largest number. Form entry: labels listed in requested order.
R, S, P, Q

(a) CNc1nc(C)c(-c2ccnc(Nc3cccc(S(=O)(=O)NCCO)c3)n2)s1 [Compound 76]
(b) CNS(=O)(=O)c1cccc(Nc2nccc(-c3sc(C)nc3C)n2)c1 [Compound 33]
(c) CCNc1nc(C)c(-c2ccnc(Nc3ccc(S(C)(=O)=O)cc3)n2)s1 [Compound 17]
(d) CCNc1nc(C)c(-c2ccnc(Nc3ccc(C)c(S(=O)(=O)N4CCOCC4)c3)n2)s1 [Compound 36]
Arrange the 4 entries by IC50 so the values rise. Answer format: the labels, in the requested order.
b, a, d, c

(I) CCNS(=O)(=O)c1cccc(Nc2nccc(-c3sc(NC)nc3C)n2)c1 [Compound 31]
(II) Cc1nc(C)c(-c2ccnc(Nc3ccc(N4CCN(Cc5ccccc5)CC4)cc3)n2)s1 [Compound 114]
(III) COc1cc(Nc2nccc(-c3sc(N)nc3C)n2)ccc1N1CCOCC1 [Compound 182]
Descending sort on IC50 required. # format: label list in the order the request specifies
III, I, II
